Examples of compounds with documented IC50 follow.
system: lung cancer cell lines (e.g. NCI-H23, NCI-H1229); test: Cell based assay, cell viability (CellTiter-Glo), lung cancer cell lines; conditions: Homo sapiens; A549 cells; 72 hours treatment; CellTiter-Glo; read-out: IC50, lung cancer cell line A549

So for CC(=O)c1c([S+]([O-])Cc2ccccc2)n(C(=O)c2ccc(Br)cc2)c2c(Br)ccc(Cl)c2c1=O (stereo not shown) [Compound 20] , the logged IC50 turned out to be > 2000 nM

So for CC(=O)c1c(S(C)(=O)=O)n(C(=O)c2ccc(Br)cc2)c2c(Br)ccc(Cl)c2c1=O [Compound 21] , the logged IC50 turned out to be > 2000 nM

So for CC(=O)c1c([S+]([O-])Cc2ccc(S(F)(F)(F)(F)F)cc2F)[nH]c2c(Br)ccc(Cl)c2c1=O (stereo not shown) [Compound 69] , the logged IC50 turned out to be 1780 nM

So for CC(=O)c1c([S+]([O-])Cc2cccnc2)[nH]c2c(Br)ccc(Cl)c2c1=O (stereo not shown) [Compound 84] , the logged IC50 turned out to be > 2000 nM

So for CC(=O)c1c(S/C=C\C(=O)O)[nH]c2c(Br)ccc(Cl)c2c1=O [Compound 67] , the logged IC50 turned out to be > 2000 nM

So for CC(=O)c1c([S+]([O-])Cc2cccc(C#N)c2)[nH]c2c(Br)ccc(Cl)c2c1=O (stereo not shown) [Compound 28] , the logged IC50 turned out to be > 2000 nM

So for CC(=O)c1c(SCc2cccc(C#N)c2)[nH]c2c(Br)ccc(Cl)c2c1=O [Compound 27] , the logged IC50 turned out to be > 2000 nM

So for CC(=O)c1c([S+]([O-])Cc2ccc(C(=O)c3ccccc3)cc2)[nH]c2c(Br)ccc(Cl)c2c1=O (stereo not shown) [Compound 63] , the logged IC50 turned out to be > 2000 nM

So for CC(=O)c1c([S+]([O-])Cc2cccc(F)c2)[nH]c2c(Br)ccc(Cl)c2c1=O (stereo not shown) [Compound 50] , the logged IC50 turned out to be > 2000 nM

So for CC(=O)c1c([S+](C)[O-])n(C(=O)c2ccc(Br)cc2)c2c(Br)ccc(Cl)c2c1=O (stereo not shown) [Compound 9] , the logged IC50 turned out to be > 2000 nM

So for CSc1[nH]c2ccc(F)cc2c(=O)c1C(C)=O [Compound 8] , the logged IC50 turned out to be > 2000 nM

So for CC(=O)c1c([S+]([O-])Cc2ccc(C(F)(F)F)cc2)[nH]c2c(Br)ccc(Cl)c2c1=O (stereo not shown) [Compound 70] , the logged IC50 turned out to be 1990 nM

So for CC(=O)c1c([S+]([O-])Cc2ccc(C(C)(C)C)cc2)[nH]c2c(Br)ccc(Cl)c2c1=O (stereo not shown) [Compound 60] , the logged IC50 turned out to be > 2000 nM

So for CC(=O)c1c(SCc2cc(F)cc(F)c2)[nH]c2c(Br)ccc(Cl)c2c1=O [Compound 45] , the logged IC50 turned out to be > 2000 nM

So for CC(=O)c1c(SCc2cc(Cl)ccc2Cl)[nH]c2c(Br)ccc(Cl)c2c1=O [Compound 43] , the logged IC50 turned out to be > 2000 nM

So for CC(=O)c1c([S+]([O-])Cc2ccc(SC(F)(F)F)cc2)[nH]c2c(Cl)ccc(Cl)c2c1=O (stereo not shown) [Compound 79] , the logged IC50 turned out to be > 2000 nM

---

tested on: colorectal cancer cell lines (e.g. DLD-1, HCT 116, SW620, HCT-15, HCT-8, RKO); test: Cell based assay, cell viability (CellTiter-Glo), colorectal cancer cell lines; details: Homo sapiens, RKO cells, 72 hours treatment, read-out: IC50, colorectal cancer cell line RKO
Output y for records whose IC50 is lower than 1 µM, n for records at or above 1 µM.

Please review the entries below; each comes with its answer.
[
  {
    "molecule": "COC(=O)c1ccc(C[S+]([O-])c2[nH]c3c(Cl)ccc(Cl)c3c(=O)c2C(C)=O)o1 (stereo not shown) [Compound 89]",
    "answer_label": "n"
  },
  {
    "molecule": "Cc1cc(C[S+]([O-])c2[nH]c3c(Br)ccc(Cl)c3c(=O)c2C(=O)C(C)C)no1 (stereo not shown) [Compound 95]",
    "answer_label": "y"
  },
  {
    "molecule": "CC(=O)c1c([S+]([O-])Cc2ccc(I)cc2)[nH]c2c(Cl)ccc(Cl)c2c1=O (stereo not shown) [Compound 83]",
    "answer_label": "n"
  },
  {
    "molecule": "CC(C)C(=O)c1c([S+]([O-])Cc2ccc(SC(F)(F)F)cc2)[nH]c2c(F)ccc(F)c2c1=O (stereo not shown) [Compound 85]",
    "answer_label": "n"
  },
  {
    "molecule": "Cc1cc(C[S+]([O-])c2[nH]c3c(Cl)ccc(Cl)c3c(=O)c2C(=O)C(C)C)no1 (stereo not shown) [Compound 86]",
    "answer_label": "y"
  },
  {
    "molecule": "CC(=O)c1c([S+]([O-])Cc2ccc(NS(C)(=O)=O)cc2)[nH]c2c(Br)ccc(Cl)c2c1=O (stereo not shown) [Compound 103]",
    "answer_label": "n"
  },
  {
    "molecule": "O=C(c1ccccc1)c1c([S+]([O-])Cc2ccc(S(F)(F)(F)(F)F)cc2)[nH]c2c(F)ccc(F)c2c1=O (stereo not shown) [Compound 87]",
    "answer_label": "n"
  },
  {
    "molecule": "O=C(c1c([S+]([O-])Cc2ccc(SC(F)(F)F)cc2)[nH]c2c(Br)ccc(Cl)c2c1=O)C1CC1 (stereo not shown) [Compound 101]",
    "answer_label": "n"
  }
]

Query: Say whether its IC50 is strictly beneath 1 µM. Entry: COC(=O)c1ccc(C[S+]([O-])c2[nH]c3c(Cl)ccc(Cl)c3c(=O)c2C(C)=O)cc1 (stereo not shown) [Compound 91]
Response: n

Query: Say whether its IC50 is strictly beneath 1 µM. Entry: CC(=O)c1c([S+]([O-])Cc2ccc(C#N)s2)[nH]c2c(Br)ccc(Cl)c2c1=O (stereo not shown) [Compound 98]
Response: n

---

tested on: blood cancer cell lines (e.g. HL-60, Jurkat, Raji, Ramos, Daudi, MOLT-4); experiment: Cell based assay, cell viability (CellTiter-Glo), blood cancer cell lines; conditions: Homo sapiens, blood cancer cell line Jurkat, 72 hours, read-out: IC50, Jurkat
Examples of compounds with documented IC50 follow.
Answer format: numeric, µM implied, no suffix.

[
  {
    "compound": "CC(=O)c1c([S+]([O-])Cc2cccnc2)[nH]c2c(Br)ccc(Cl)c2c1=O (stereo not shown)",
    "experimental_system": "blood cancer cell lines (e.g. HL-60, Jurkat, Raji, Ramos, Daudi, MOLT-4)",
    "IC50, µM": 0.98
  },
  {
    "compound": "CC(=O)c1c([S+]([O-])Cc2cc(F)cc(S(F)(F)(F)(F)F)c2)[nH]c2c(Br)ccc(Cl)c2c1=O (stereo not shown)",
    "experimental_system": "blood cancer cell lines (e.g. HL-60, Jurkat, Raji, Ramos, Daudi, MOLT-4)",
    "IC50, µM": 1.2
  },
  {
    "compound": "CC(=O)c1c([S+]([O-])Cc2cccc(C#N)c2)[nH]c2c(Br)ccc(Cl)c2c1=O (stereo not shown)",
    "experimental_system": "blood cancer cell lines (e.g. HL-60, Jurkat, Raji, Ramos, Daudi, MOLT-4)",
    "IC50, µM": 0.88
  },
  {
    "compound": "CC(=O)c1c([S+]([O-])Cc2cccc(F)c2)[nH]c2c(Br)ccc(Cl)c2c1=O (stereo not shown)",
    "experimental_system": "blood cancer cell lines (e.g. HL-60, Jurkat, Raji, Ramos, Daudi, MOLT-4)",
    "IC50, µM": 1.2
  },
  {
    "compound": "CC(=O)c1c([S+]([O-])Cc2ccc(-n3cccn3)nc2)[nH]c2c(Br)ccc(Cl)c2c1=O (stereo not shown)",
    "experimental_system": "blood cancer cell lines (e.g. HL-60, Jurkat, Raji, Ramos, Daudi, MOLT-4)",
    "IC50, µM": 0.44
  }
]

The observed IC50 for COc1cc(S(F)(F)(F)(F)F)ccc1C[S+]([O-])c1[nH]c2c(Br)ccc(Cl)c2c(=O)c1C(C)=O (stereo not shown) when tested with blood cancer cell lines (e.g. HL-60, Jurkat, Raji, Ramos, Daudi, MOLT-4) stands at 1.09

The observed IC50 for CC(=O)c1c([S+]([O-])Cc2ccc(OC(F)(F)F)cc2)[nH]c2c(Br)ccc(Cl)c2c1=O (stereo not shown) when tested with blood cancer cell lines (e.g. HL-60, Jurkat, Raji, Ramos, Daudi, MOLT-4) stands at 1.25
